molecular target: human GLP-1R (Homo sapiens, UniProt P43220, G168S); experiment: CHO GLP-1R Clone H6—Assay 1: HTRF cAMP cell-based functional agonist assay (high GLP-1R density); settings: read-out: Assay 1 Emax (%), CHO GLP-1R Clone H6; relative to saturating concentration of full agonist GLP-1 (1 μM); arithmetic mean
Sequence (P43220 24-463 G168S limits assumed): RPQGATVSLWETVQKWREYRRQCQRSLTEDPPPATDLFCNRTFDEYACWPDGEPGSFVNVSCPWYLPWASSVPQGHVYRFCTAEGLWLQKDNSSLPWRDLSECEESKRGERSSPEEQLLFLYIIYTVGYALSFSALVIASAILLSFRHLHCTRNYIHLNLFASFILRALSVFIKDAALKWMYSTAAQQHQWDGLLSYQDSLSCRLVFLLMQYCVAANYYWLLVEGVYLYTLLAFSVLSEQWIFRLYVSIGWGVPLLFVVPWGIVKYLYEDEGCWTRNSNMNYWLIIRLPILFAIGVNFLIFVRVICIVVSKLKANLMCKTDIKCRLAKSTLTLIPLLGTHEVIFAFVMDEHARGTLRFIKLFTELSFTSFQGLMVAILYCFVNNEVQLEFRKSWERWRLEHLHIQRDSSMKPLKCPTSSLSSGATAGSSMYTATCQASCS
Counter-ions that a name gives are not always drawn.
Endpoint Label: Emax (%)

Molecule	Unit Name	Endpoint Result
COCCn1c(CN2CCC(c3cccc(OCc4ccc(Cl)cc4F)n3)CC2)nc2ncc(C(=O)O)cc21 [Example 2A-02, hydrochloride]	%	95
Cn1cnc(CCn2c(CN3CCC(c4cccc(OCc5ccc(Cl)cc5F)n4)CC3)nc3ccc(C(=O)O)cc32)c1 [Example 11A-01]	%	85
O=C(O)c1ccc2nc(CN3CCC(c4cccc(OCc5ccc(Cl)cc5F)n4)CC3)n(CCn3cccn3)c2c1 [Example 11A-28]	%	77
Cn1cc(Cn2c(CN3CCC(c4cccc(OCc5ccc(Cl)cc5F)n4)CC3)nc3ccc(C(=O)O)cc32)cn1 [Example 11A-43]	%	80
Cn1cncc1Cn1c(CN2CCC(c3cccc(OCc4ccc(C#N)cc4F)n3)CC2)nc2ccc(C(=O)O)cc21	%	86
Cc1nc(Cn2c(CN3CCC(c4cccc(OCc5ccc(Cl)cc5F)n4)CC3)nc3ccc(C(=O)O)cc32)c(C)o1 [Example 11A-55]	%	80
O=C(O)c1ccc2nc(CN3CCC(c4cccc(OCc5ccc(Cl)cc5F)n4)CC3)n(C[C@H]3CCO3)c2n1	%	72
C[C@H]1CN(c2cccc(OCc3ccc(C#N)cc3F)n2)CCN1Cc1nc2ccc(C(=O)O)nc2n1C[C@@H]1CCO1 [Example 10A-09]	%	95
COC[C@H](C)n1c(CN2CCC(c3cccc(OCc4ccc(Cl)cc4F)n3)CC2)nc2ccc(C(=O)O)cc21 [Example 11A-45]	%	74
CCn1nncc1Cn1c(CN2CCN(c3cccc(OCc4ccc(C#N)cc4F)n3)CC2)nc2ccc(C(=O)O)cc21 [Example 10A-62]	%	96
O=C(O)c1ccc2nc(CN3CCC(c4cccc(OCc5ccc(Cl)cc5F)n4)CC3)n(Cc3cc[nH]n3)c2c1 [Example 11A-24]	%	80
Cn1cc(CCn2c(CN3CCC(c4cccc(OCc5ccc(Cl)cc5F)n4)CC3)nc3ccc(C(=O)O)cc32)cn1 [Example 11A-32]	%	83
Cn1cc(CCn2c(CN3CCC(c4cccc(OCc5ccc(Cl)cc5F)n4)CC3)nc3ccc(C(=O)O)cc32)nn1 [Example 11A-44]	%	77
CCn1c(CN2CCC(c3cccc(OCc4ccc(Cl)cc4F)n3)CC2)nc2ccc(C(=O)O)cc21 [Example 10A-39]	%	69
O=C(O)c1ccc2nc(CN3CCC(c4cccc(OCc5ccc(Cl)cc5F)n4)CC3)n(Cc3cnoc3)c2c1 [Example 10A-68]	%	76
CO[C@H]1CCC[C@H]1Cn1c(CN2CCC(c3cccc(OCc4ccc(Cl)cc4F)n3)CC2)nc2ccc(C(=O)O)cc21 (racemic)	%	88
O=C(O)c1ccc2nc(CN3CCN(c4cccc(OCc5ccc(Cl)cc5F)n4)CC3)n(Cc3cnco3)c2c1 [Example 10A-45]	%	76
CC[C@H]1CN(c2cccc(OCc3ccc(Cl)cc3F)n2)CCN1Cc1nc2ccc(C(=O)O)cc2n1CCOC [Example 12A-07]	%	69
Cn1c(CN2CCC(c3cccc(OCc4ccc(Cl)cc4F)n3)CC2)nc2cc(Cl)c(C(=O)O)cc21	%	78
COCCn1c(CN2CCC(c3cccc(OCc4ccc(Cl)cc4F)n3)CC2)nc2ccc(C(=O)O)nc21	%	76
COCCn1c(CN2CCC(c3cccc(OCc4ccc(Cl)cc4F)n3)CC2)nc2ncc(C(=O)O)c(C)c21	%	79
C[C@H]1CN(c2cccc(OCc3ccc(C#N)cc3F)n2)CCN1Cc1nc2ccc(C(=O)O)cc2n1Cc1ncco1 [Example 10A-15]	%	72
O=C(O)c1ccc2nc(CN3CCN(c4cccc(OCc5ccc(Cl)cc5F)n4)CC3)n(C[C@@H]3CCO3)c2c1 [Example 10A-08]	%	77
O=C(O)c1ccc2nc(CN3CCC(c4cccc(OCc5ccc(Cl)cc5F)n4)CC3)n(Cc3ccno3)c2c1 [Example 10A-64]	%	82
Cc1nc(C(C)n2c(CN3CCC(c4cccc(OCc5ccc(Cl)cc5F)n4)CC3)nc3ccc(C(=O)O)cc32)n[nH]1 (stereo not drawn) [Example 11A-67]	%	100
COCCn1c(CN2CC[C@@H](c3cccc(OCc4ccc(Cl)cc4F)n3)[C@H](C)C2)nc2ccc(C(=O)O)cc21 (racemic)	%	80
COCCn1c(CN2CCC(c3cccc(OCc4ccc(Cl)cc4F)n3)CC2)nc2ccc(C(=O)O)c(F)c21	%	72
